Data provenance: BindingDB's records for patent US20250313563

assayedSystem: UniProt:P49840
Sequence (P49840 whole entry): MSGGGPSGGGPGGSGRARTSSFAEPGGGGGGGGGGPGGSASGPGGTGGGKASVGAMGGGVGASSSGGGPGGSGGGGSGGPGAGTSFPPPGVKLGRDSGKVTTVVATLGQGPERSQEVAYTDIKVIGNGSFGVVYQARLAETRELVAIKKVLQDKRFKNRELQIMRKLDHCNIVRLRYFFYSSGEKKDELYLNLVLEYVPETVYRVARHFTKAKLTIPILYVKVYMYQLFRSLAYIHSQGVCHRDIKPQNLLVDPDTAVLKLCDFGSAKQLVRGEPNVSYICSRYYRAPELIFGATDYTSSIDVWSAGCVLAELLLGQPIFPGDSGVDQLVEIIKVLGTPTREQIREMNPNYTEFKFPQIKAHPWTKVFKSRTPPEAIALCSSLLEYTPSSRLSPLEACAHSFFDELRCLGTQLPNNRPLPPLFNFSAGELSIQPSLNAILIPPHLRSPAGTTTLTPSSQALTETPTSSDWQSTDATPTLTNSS
reportedMetric: IC50

// known answers, use as guide
# lookup: IC50 of CC1(C)CC(=O)C2=C(C1)NC1=C(CN=N1)C21CN(S(=O)(=O)C2CC2)C1 [US20250313563, Compound 913259]
< 100 nM

# lookup: IC50 of CCC1(c2cccc(-c3ccnc4c3CCCC4)c2)C2=C(N=NC2)NC2=C1C(=O)C(C)(C)C2 (configuration not stated) [US20250313563, Compound 952752]
< 100 nM

Request the reported IC50 associated with CCC1(c2cccc(N(C)C(=O)CCc3ccccc3)c2)C2=CN=NC2NC2=C1C(=O)CC(C)(C)C2 (configuration not stated) [US20250313563, Compound 912066]
< 100 nM

New cases:
Would you kindly share the measured IC50 for CC[C@@]1(c2cccc(-c3cc(-c4ccccc4)nn3C(C)C)c2)C2=CN=NC2NC2=C1C(=O)NC(C)(C)C2 (some centres not stated) [US20250313563, Compound 952411] ?
1000 to 5000 nM

What value of measured IC50 is listed for CCC1(c2cc(N(C)C(C)=O)ccc2F)C2=CN=NC2NC2=C1C(=O)CC(C)(C)C2 (configuration not stated) [US20250313563, Compound 913124] ?
100 to 1000 nM

# get_value(readout='IC50', item= CCC1(c2cccc(C3CC3)c2)C2=CN=NC2NC2=C1C(=O)CC(C)(C)C2 (configuration not stated) [US20250313563, Compound 801316] )
< 100 nM

What IC50 value was documented for this compound, CC[C@@]1(c2cccc(C(F)(F)F)c2)C2=C(NC3=NN=CC31)c1ccccc1C2=O (some centres not stated) [US20250313563, Compound 949742] ?
100 to 1000 nM
